Molecular target: Potassium channel protein (Rattus norvegicus)
Sequence (whole entry): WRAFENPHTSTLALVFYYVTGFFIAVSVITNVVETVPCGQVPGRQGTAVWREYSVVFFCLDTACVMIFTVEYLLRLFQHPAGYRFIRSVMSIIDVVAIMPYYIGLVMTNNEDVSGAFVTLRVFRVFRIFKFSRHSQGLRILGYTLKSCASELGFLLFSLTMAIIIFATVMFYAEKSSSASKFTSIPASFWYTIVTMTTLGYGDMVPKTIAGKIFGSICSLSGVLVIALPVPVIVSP
Assay: Activation of potassium channel in Rattus norvegicus (rat) aortic rings assessed as inhibition of phenylepinephrine-induced contractile response in presence of ATP-sensitive potassium channel inhibitor glibenclamide relative to control
Settings: Aorta
value_kind: Emax (%)
Entry rule: numbers only, all in %.

Reference set, count: 4
CC1CC(=O)C2=C(C1)NC1=C(C(=O)CC(C)C1)C2c1ccc(C(F)(F)F)cc1F (stereo not given)
27.2
CC1CC(=O)C2=C(C1)NC1=C(C(=O)CC(C)C1)C2c1cccc(C(F)(F)F)c1Cl (stereo not given)
29
CC1CC(=O)C2=C(C1)NC1=C(C(=O)CC(C)C1)C2c1c(F)cccc1C(F)(F)F (stereo not given)
23.8
CC(N/C(=N\C#N)Nc1ccncc1)C(C)(C)C (stereo not given)
20.8

Turning to the following molecule.
Request: Quick one: Emax for CC1CC(=O)C2=C(C1)NC1=C(C(=O)CC(C)C1)C2c1ccc(F)c(C(F)(F)F)c1 (stereo not given) ?
Response: 22.4
